MEASUREMENT_TARGET: σ1 receptor (Cavia porcellus (Guinea pig))
Sequence (Q60492 whole entry): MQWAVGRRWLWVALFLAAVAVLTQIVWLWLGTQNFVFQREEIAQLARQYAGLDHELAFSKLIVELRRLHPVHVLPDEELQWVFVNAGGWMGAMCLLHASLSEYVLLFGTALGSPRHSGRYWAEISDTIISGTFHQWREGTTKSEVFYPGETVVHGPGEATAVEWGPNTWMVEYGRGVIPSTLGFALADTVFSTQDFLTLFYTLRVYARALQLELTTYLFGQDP
EXPERIMENTAL_PROTOCOL: σ1 receptor binding, [3H](+)-Pentazocine
EXPERIMENTAL_SETUP: ratio of Ki values
Classification field: 1 = Selectivity ratio VAChT/σ1 at or over 7; -1 = Selectivity ratio VAChT/σ1 under 7.

Some entries whose results are on file:
COMPOUND | MEASUREMENT_TARGET | ANSWER_LABEL
O=C(c1ccc(SCCF)cc1)C1CCN([C@@H]2Cc3ccccc3C[C@H]2O)CC1 (single isomer, unassigned) [(+)-9a] | σ1 receptor (Cavia porcellus (Guinea pig)) | -1
O=C(c1ccc(SCCCF)cc1)C1CCN([C@@H]2Cc3ccccc3C[C@H]2O)CC1 (single isomer, unassigned) [(+)-9b] | σ1 receptor (Cavia porcellus (Guinea pig)) | -1
O=C(c1ccc(SCCCF)cc1)C1CCN(C2Cc3ccccc3CC2O)CC1 (single isomer, unassigned; (-)) [(−)-9b] | σ1 receptor (Cavia porcellus (Guinea pig)) | -1
CSc1ccc(C(=O)C2CCN(C3Cc4ccccc4CC3O)CC2)cc1 (single isomer, unassigned; (-)) [(−)-3] | σ1 receptor (Cavia porcellus (Guinea pig)) | 1
CS(=O)(=O)c1ccc(C(=O)C2CCN(C3Cc4ccccc4CC3O)CC2)cc1 (racemic) [Compound 2] | σ1 receptor (Cavia porcellus (Guinea pig)) | -1
CS(=O)(=O)c1ccc(C(=O)C2CCN([C@@H]3Cc4ccccc4C[C@H]3O)CC2)cc1 (single isomer, unassigned) [(+)-2] | σ1 receptor (Cavia porcellus (Guinea pig)) | -1

Is it the case that CSc1ccc(C(=O)C2CCN([C@@H]3Cc4ccccc4C[C@H]3O)CC2)cc1 (single isomer, unassigned) [(+)-3] has Selectivity ratio VAChT/σ1 reaching or exceeding 7?
-1

Is it the case that O=C(c1ccc(SCCCF)cc1)C1CCN(C2Cc3ccccc3CC2O)CC1 (racemic) [Compound 9b] has Selectivity ratio VAChT/σ1 reaching or exceeding 7?
1

Is it the case that O=C(c1ccc(SCCF)cc1)C1CCN(C2Cc3ccccc3CC2O)CC1 (single isomer, unassigned; (-)) [(−)-9a] has Selectivity ratio VAChT/σ1 reaching or exceeding 7?
1

Is it the case that CS(=O)(=O)c1ccc(C(=O)C2CCN(C3Cc4ccccc4CC3O)CC2)cc1 (single isomer, unassigned; (-)) [(−)-2] has Selectivity ratio VAChT/σ1 reaching or exceeding 7?
1

---

MEASUREMENT_TARGET: σ2 receptor (Rattus norvegicus (Rat))
Sequence (Q5U3Y7 whole entry): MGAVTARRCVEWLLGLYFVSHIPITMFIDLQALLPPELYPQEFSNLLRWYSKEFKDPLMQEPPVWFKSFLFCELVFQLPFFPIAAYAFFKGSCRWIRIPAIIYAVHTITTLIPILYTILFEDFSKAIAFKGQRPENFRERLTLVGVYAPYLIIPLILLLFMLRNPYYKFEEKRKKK
EXPERIMENTAL_PROTOCOL: σ2 receptor binding, [3H]DTG
EXPERIMENTAL_SETUP: ratio of Ki values
READOUT_KIND: Selectivity ratio VAChT/σ2

Previously resolved entries follow.
MOLECULE | READOUT_KIND | RECORDED_RESULT
O=C(c1ccc(SCCCF)cc1)C1CCN(C2Cc3ccccc3CC2O)CC1 (racemic) [Compound 9b] | Selectivity ratio VAChT/σ2 | >434
O=C(c1ccc(SCCF)cc1)C1CCN(C2Cc3ccccc3CC2O)CC1 (racemic) [Compound 9a] | Selectivity ratio VAChT/σ2 | >416
O=C(c1ccc(SCCCF)cc1)C1CCN([C@@H]2Cc3ccccc3C[C@H]2O)CC1 (single isomer, unassigned) [(+)-9b] | Selectivity ratio VAChT/σ2 | >50
O=C(c1ccc(SCCF)cc1)C1CCN([C@@H]2Cc3ccccc3C[C@H]2O)CC1 (single isomer, unassigned) [(+)-9a] | Selectivity ratio VAChT/σ2 | >84
CSc1ccc(C(=O)C2CCN(C3Cc4ccccc4CC3O)CC2)cc1 (racemic) [Compound 3] | Selectivity ratio VAChT/σ2 | >416
O=C(c1ccc(SCCF)cc1)C1CCN(C2Cc3ccccc3CC2O)CC1 (single isomer, unassigned; (-)) [(−)-9a] | Selectivity ratio VAChT/σ2 | >454

# ---- query molecule ----
Query Selectivity ratio VAChT/σ2 on σ2 receptor (Rattus norvegicus (Rat)) for O=C(c1ccc(SCCCF)cc1)C1CCN(C2Cc3ccccc3CC2O)CC1 (single isomer, unassigned; (-)) [(−)-9b]
>714
